# tested on: human recombinant PDE9 protein (Homo sapiens)
# Construct: His-tag (inferred from the Ni column purification; a myc His-tag vector is named only for the HEK293 expression check)
# Sequence (O76083 whole entry): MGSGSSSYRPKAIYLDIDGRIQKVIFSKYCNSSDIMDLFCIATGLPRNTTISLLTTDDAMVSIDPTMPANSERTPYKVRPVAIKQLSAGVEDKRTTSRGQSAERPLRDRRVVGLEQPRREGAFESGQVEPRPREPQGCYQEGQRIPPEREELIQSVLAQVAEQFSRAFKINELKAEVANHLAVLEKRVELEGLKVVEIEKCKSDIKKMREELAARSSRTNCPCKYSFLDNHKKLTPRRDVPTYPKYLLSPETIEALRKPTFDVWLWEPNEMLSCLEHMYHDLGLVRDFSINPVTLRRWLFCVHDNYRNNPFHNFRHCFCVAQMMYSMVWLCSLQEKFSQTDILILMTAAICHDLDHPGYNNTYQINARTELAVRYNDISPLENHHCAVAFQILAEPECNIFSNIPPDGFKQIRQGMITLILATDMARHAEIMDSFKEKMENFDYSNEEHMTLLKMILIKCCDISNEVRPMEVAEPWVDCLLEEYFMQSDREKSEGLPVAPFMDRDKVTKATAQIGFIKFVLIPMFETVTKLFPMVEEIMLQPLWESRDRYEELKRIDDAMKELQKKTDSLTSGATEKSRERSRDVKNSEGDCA
# protocol details: PDE9 inhibitory activity test (measurement of PDE9 inhibitory action, [3H]-cGMP)
# assay context: PDE9 IC50, human recombinant PDE9, 30° C., 10 min
pIC50: −log10 of the molar value.
Rule: pIC50 under 8 gives 0 (no), otherwise 1 (yes).

Use these answered entries as a reference point.
COc1nccc(C)c1-c1ccc2c(c1)[nH]c(=O)c1cnn(C3CCOC3)c12 (single isomer, unassigned) [32 (+)] | 0 (no)
COc1cc(C)c(-c2cc3[nH]c(=O)c4cnn([C@H]5CCOC5)c4c3cc2F)c(C)n1 | 0 (no)
COc1ncc(C)c(-c2ccc3c(c2)[nH]c(=O)c2cnn([C@@H]4COC[C@H]4OC)c23)c1C (racemic) | 0 (no)
COc1nc(C)c(-c2ccc3c(c2)[nH]c(=O)c2cnn(C4CCOCC4)c23)c(OC)n1 | 0 (no)

Exercise: Assess whether reported pIC50 for COc1nc(C)cc(C)c1-c1ccc2c(c1)[nH]c(=O)c1cnn(C3COCCOC3)c12 sits at 8 or higher.
Solution: 1 (yes)
